meta.source: ChEMBL document CHEMBL1157938

Molecular target: DNA topoisomerase 2-alpha (Homo sapiens)
Sequence (P11388 whole entry): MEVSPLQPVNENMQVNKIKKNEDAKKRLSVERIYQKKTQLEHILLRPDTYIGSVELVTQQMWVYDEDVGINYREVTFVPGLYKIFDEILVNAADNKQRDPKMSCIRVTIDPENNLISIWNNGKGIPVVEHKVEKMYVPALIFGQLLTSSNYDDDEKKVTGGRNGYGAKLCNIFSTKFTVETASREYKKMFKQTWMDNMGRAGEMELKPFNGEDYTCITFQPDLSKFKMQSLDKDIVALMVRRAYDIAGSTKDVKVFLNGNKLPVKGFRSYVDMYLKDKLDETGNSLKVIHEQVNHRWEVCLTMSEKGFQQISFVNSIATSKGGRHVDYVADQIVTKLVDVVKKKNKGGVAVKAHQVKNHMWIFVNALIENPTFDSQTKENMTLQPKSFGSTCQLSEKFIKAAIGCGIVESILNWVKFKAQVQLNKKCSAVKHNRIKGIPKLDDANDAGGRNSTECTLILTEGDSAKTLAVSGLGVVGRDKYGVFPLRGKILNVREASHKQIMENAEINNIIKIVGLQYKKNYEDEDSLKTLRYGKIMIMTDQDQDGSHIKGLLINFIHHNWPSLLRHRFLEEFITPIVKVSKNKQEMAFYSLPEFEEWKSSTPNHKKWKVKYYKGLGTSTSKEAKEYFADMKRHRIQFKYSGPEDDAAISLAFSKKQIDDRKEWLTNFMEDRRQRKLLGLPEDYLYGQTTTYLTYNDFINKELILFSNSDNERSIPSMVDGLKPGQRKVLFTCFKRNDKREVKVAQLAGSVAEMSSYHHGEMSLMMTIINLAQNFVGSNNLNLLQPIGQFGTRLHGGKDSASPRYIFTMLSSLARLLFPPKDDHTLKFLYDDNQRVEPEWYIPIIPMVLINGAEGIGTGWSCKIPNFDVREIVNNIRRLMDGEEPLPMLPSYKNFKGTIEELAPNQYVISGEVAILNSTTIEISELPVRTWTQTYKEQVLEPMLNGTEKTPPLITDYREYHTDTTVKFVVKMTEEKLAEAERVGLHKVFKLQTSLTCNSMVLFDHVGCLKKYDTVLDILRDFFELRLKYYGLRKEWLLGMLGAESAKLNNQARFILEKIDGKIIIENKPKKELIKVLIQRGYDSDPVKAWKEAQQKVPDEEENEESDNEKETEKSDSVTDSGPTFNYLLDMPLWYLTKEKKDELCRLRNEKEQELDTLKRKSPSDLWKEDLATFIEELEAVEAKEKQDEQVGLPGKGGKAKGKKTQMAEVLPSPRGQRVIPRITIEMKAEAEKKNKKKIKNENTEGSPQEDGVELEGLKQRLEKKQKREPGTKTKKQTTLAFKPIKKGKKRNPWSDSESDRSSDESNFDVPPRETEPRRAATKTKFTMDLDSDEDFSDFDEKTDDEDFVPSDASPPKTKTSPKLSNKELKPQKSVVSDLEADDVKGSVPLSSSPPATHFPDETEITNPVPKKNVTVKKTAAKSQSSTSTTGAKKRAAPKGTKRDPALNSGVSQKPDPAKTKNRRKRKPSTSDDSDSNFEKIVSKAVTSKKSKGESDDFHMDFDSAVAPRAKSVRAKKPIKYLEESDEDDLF
MEASURED_PROPERTY: IC50

Some compounds with known IC50 results, for comparison:
compound="CC(C)=CCC[C@](C)(O[C@@H]1O[C@H](CO[C@@H]2O[C@H](CO)[C@@H](O)[C@H](O)[C@H]2O)[C@@H](O)[C@H](O)[C@H]1O)[C@H]1CC[C@]2(C)[C@@H]1[C@H](O)C[C@@H]1[C@@]3(C)CC[C@H](O[C@@H]4O[C@H](CO)[C@@H](O)[C@H](O)[C@H]4O)C(C)(C)[C@@H]3CC[C@]12C [GYPENOSIDE XVII]" measured_property=IC50 recorded_measurement="> 250 µM"
compound="C/C=C(\\C)C(=O)O[C@H]1[C@H](OC(C)=O)[C@]2(CO)[C@H](O)[C@H](O)[C@]3(C)C(=CC[C@@H]4[C@@]5(C)CC[C@H](O[C@@H]6O[C@H](C(=O)O)[C@@H](O)[C@H](O[C@@H]7O[C@@H](CO)[C@H](O)[C@H]7O)[C@H]6O[C@@H]6O[C@H](CO)[C@H](O)[C@H](O)[C@H]6O)C(C)(C)[C@@H]5CC[C@]43C)[C@@H]2CC1(C)C [AESCULIOSIDE IIF]" measured_property=IC50 recorded_measurement="> 250 µM"

Would you kindly look at the next entry?
Query :: Any idea what IC50 came out for C/C=C(/C)C(=O)O[C@H]1[C@H](OC(C)=O)[C@]2(CO)[C@H](O)C[C@]3(C)C(=CC[C@@H]4[C@@]5(C)CC[C@H](O[C@@H]6O[C@H](C(=O)O)[C@@H](O)[C@H](O[C@@H]7O[C@@H](CO)[C@H](O)[C@H]7O)[C@H]6O[C@@H]6O[C@H](CO)[C@@H](O)[C@H](O)[C@H]6O)[C@](C)(CO)[C@@H]5CC[C@]43C)[C@@H]2CC1(C)C [AESCULIOSIDE III] on DNA topoisomerase 2-alpha (Homo sapiens)?
Result :: > 250 µM

* * *

Molecular target: DNA topoisomerase 1 (Homo sapiens, UniProt P11387)
Sequence (P11387 whole entry): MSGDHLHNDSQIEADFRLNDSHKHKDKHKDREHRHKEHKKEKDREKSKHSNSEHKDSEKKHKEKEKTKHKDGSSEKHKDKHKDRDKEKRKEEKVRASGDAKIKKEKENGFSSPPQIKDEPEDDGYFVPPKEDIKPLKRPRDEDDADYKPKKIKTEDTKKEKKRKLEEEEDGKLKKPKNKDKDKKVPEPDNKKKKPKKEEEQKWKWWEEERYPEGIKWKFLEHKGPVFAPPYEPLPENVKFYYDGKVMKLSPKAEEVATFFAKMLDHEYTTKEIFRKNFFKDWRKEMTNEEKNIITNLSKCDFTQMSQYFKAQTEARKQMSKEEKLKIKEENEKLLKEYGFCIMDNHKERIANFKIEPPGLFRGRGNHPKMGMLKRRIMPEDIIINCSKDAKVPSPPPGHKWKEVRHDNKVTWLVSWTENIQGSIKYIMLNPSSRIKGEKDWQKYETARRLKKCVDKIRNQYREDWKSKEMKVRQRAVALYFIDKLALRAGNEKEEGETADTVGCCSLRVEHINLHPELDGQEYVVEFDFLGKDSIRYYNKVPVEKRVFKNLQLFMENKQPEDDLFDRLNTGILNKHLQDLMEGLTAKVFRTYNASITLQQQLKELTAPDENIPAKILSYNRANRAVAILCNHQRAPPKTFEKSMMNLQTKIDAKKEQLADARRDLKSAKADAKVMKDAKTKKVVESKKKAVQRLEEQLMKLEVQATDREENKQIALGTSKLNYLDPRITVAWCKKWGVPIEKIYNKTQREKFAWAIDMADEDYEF
Experiment: Inhibition of human DNA topoisomerase 1-mediated relaxation of supercoiled DNA by gel electrophoresis
Documented IC50 across a set of compounds

Some compounds with known IC50 results, for comparison:
compound="C/C=C(/C)C(=O)O[C@H]1[C@H](OC(=O)C(C)CC)[C@]2(CO)[C@H](O)[C@H](O)[C@]3(C)C(=CC[C@@H]4[C@@]5(C)CC[C@H](O)C(C)(C)[C@@H]5CC[C@]43C)[C@@H]2CC1(C)C (stereo partly drawn)" measured_property=IC50 recorded_measurement="> 250 µM"
compound="C/C=C(/C)C(=O)O[C@H]1[C@H](OC(=O)/C(C)=C/C)C(C)(C)C[C@H]2C3=CC[C@@H]4[C@@]5(C)CC[C@H](O[C@@H]6O[C@H](C(=O)O)[C@@H](O)[C@H](O[C@@H]7O[C@@H](CO)[C@H](O)[C@H]7O)[C@H]6O[C@@H]6O[C@H](CO)[C@@H](O)[C@H](O)[C@H]6O)[C@](C)(CO)[C@@H]5CC[C@@]4(C)[C@]3(C)[C@@H](O)[C@@H](O)[C@]21CO [AESCULIOSIDE IIIE]" measured_property=IC50 recorded_measurement="45.1 µM"

Query :: Tell me the measured IC50 of C/C=C(/C)C(=O)O[C@H]1[C@H](O)C(C)(C)C[C@H]2C3=CC[C@@H]4[C@@]5(C)CC[C@H](O[C@@H]6O[C@H](C(=O)O)[C@@H](O)[C@H](O[C@@H]7OC[C@@H](O)[C@H](O)[C@H]7O)[C@H]6O[C@@H]6O[C@H](CO)[C@@H](O)[C@H](O)[C@H]6O)C(C)(C)[C@@H]5CC[C@@]4(C)[C@]3(C)[C@@H](O)[C@@H](O)[C@]21CO [ERYNGIOSIDE E] , please.
Result :: > 250 µM

* * *

Target: DNA topoisomerase 1 (Homo sapiens)
Sequence (P11387 whole entry): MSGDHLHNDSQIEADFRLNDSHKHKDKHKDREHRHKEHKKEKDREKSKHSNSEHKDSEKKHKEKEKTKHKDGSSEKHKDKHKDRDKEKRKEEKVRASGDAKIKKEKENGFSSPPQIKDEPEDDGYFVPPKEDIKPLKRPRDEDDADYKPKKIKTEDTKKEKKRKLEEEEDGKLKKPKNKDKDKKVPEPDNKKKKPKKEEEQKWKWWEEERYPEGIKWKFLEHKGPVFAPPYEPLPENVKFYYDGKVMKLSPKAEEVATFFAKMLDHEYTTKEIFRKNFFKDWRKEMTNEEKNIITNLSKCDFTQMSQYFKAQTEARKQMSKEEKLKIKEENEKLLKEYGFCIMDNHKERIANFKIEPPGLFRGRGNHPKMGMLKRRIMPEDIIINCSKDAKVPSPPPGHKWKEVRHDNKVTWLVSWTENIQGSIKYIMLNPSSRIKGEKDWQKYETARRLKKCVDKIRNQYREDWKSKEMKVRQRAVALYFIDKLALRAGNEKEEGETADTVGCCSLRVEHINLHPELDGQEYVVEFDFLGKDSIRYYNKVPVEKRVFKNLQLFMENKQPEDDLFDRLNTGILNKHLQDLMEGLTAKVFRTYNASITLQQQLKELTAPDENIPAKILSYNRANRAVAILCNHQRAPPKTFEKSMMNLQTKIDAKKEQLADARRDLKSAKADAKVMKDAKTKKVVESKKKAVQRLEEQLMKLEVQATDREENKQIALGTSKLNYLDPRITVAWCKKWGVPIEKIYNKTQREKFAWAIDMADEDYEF
Experiment: Inhibition of human DNA topoisomerase 1 at free enzyme state
Documented pIC50 across a set of compounds
To interpret pIC50, take it as minus log10 of a concentration measured in moles per litre.

Some compounds with known pIC50 results, for comparison:
compound="C/C=C(/C)C(=O)O[C@H]1[C@H](OC(=O)C(C)C)[C@]2(CO)[C@H](O)[C@H](O)[C@]3(C)C(=CC[C@@H]4[C@@]5(C)CC[C@H](O[C@@H]6O[C@H](C(=O)O)[C@@H](O)[C@H](O[C@@H]7O[C@@H](CO)[C@H](O)[C@H]7O)[C@H]6O[C@@H]6O[C@H](CO)[C@@H](O)[C@H](O)[C@H]6O)[C@](C)(CO)[C@@H]5CC[C@]43C)[C@@H]2CC1(C)C [AESCULIOSIDE IIIB]" test_system="DNA topoisomerase 1 (Homo sapiens)" recorded_measurement=4.62
compound=C/C=C(/C)C(=O)O[C@H]1[C@H](OC(=O)/C(C)=C\C)[C@]2(CO)[C@H](O)[C@H](O)[C@]3(C)C(=CC[C@@H]4[C@@]5(C)CC[C@H](O[C@@H]6O[C@H](C(=O)O)[C@@H](O)[C@H](O[C@@H]7O[C@@H](CO)[C@H](O)[C@H]7O)[C@H]6O[C@@H]6O[C@H](CO)[C@H](O)[C@H](O)[C@H]6O)C(C)(C)[C@@H]5CC[C@]43C)[C@@H]2CC1(C)C test_system="DNA topoisomerase 1 (Homo sapiens)" recorded_measurement=4.62

Would you kindly look at the next entry?
Query :: Tell me the measured pIC50 of C/C=C(/C)C(=O)O[C@H]1[C@H](OC(=O)/C(C)=C\C)[C@]2(CO)[C@H](O)C[C@]3(C)C(=CC[C@@H]4[C@@]5(C)CC[C@H](O[C@@H]6O[C@H](C(=O)O)[C@@H](O)[C@H](O[C@@H]7O[C@@H](CO)[C@H](O)[C@H]7O)[C@H]6O[C@@H]6O[C@H](CO)[C@@H](O)[C@H](O)[C@H]6O)[C@](C)(CO)[C@@H]5CC[C@]43C)[C@@H]2CC1(C)C , please.
Result :: 4.62
